target: α-glucosidase; assay: α-glucosidase enzyme kinetic study (Lineweaver–Burk and secondary plots); details: from secondary plot of slopes of double-reciprocal lines
QUANTITY NAME: Ki

>>> print(df.to_string())
                                   compound  quantity_name   result
0  COc1cc2c3c(c1O)CCc1cc(OC)c(OC)c(c1-3)OC21c2cccc(O)c2-c2c1cc(OC)c(O)c2OC (stereo not shown)             Ki  20.4 µM

---

Listed compounds paired with reported pIC50
molecular target: α-glucosidase; test: α-glucosidase inhibition assay (p-nitrophenol release from p-nitrophenol-α-D-glucopyranoside); conditions: two-fold serial dilution; acarbose positive control; read-out: α-glucosidase inhibitory activity IC50
pIC50: −log10 of the molar value.
QUANTITY NAME: pIC50

>>> df
                                   compound  number
0  COc1cc2c3c(c1O)CCc1cc(OC)c(OC)c(c1-3)OC21c2cccc(O)c2-c2c1cc(OC)c(O)c2OC (centres unmarked)    4.70
1           COc1cc(O)c2c(c1)CCc1cc(O)ccc1-2    3.73
